B1: CPEB3 Ribozyme (parent)
chain: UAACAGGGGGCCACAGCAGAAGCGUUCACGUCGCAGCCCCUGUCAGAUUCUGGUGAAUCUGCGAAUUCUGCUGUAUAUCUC

Variants of: B1
method-description: self-cleavage, relative activity (ratio to wild type); higher = more cleavage; in vitro, sequencing
If the reported self-cleavage equals or exceeds 0.4, assign yes. If not, assign no.

Answered examples (8):
# mutation-annotation, label-value
data = [
    ("G36C G55A", "no"),
    ("A2G A21G", "yes"),
    ("U26A C68U", "yes"),
    ("G7C A15U", "no"),
    ("G16U C81U", "no"),
    ("G33A G70U", "yes"),
    ("G33C A64G", "no"),
    ("A28C U31A", "yes"),
]

Hello, I need to know if A5U C59A has measured self-cleavage not below 0.4. Thanks! yes

Check the entry C4U U41C : does self-cleavage equal or exceed 0.4? yes

Identify whether the reported self-cleavage of the following variant is 0.4 or greater: A3G A56C yes

Please check the record C4G U49A and state if its self-cleavage is at or above 0.4. yes

Can A2G U66G be said to have self-cleavage at or above 0.4? no

Values compiled from the RNAGym collection of RNA variant scans (doi:10.1093/nar/gkz1192).
